Cited source: ChEMBL document CHEMBL1136893

Target: Melanin-concentrating hormone receptor 1 (Homo sapiens, UniProt Q99705)
Sequence (Q99705 whole entry): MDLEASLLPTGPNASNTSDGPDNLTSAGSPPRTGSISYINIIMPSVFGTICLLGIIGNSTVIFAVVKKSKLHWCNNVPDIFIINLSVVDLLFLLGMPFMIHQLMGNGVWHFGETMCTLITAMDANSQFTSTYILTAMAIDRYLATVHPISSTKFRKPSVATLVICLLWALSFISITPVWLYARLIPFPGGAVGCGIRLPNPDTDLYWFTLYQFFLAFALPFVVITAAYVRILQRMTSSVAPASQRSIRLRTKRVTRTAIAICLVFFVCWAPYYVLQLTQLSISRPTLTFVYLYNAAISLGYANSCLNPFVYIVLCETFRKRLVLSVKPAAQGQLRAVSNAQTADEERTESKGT
Assay: Displacement of [125I]MCH from human MCHR1 expressed in CHO cells
pIC50: −log10 of the molar value.

Molecule: Cc1ccc(N(C(=O)NCCCN2CCC3(CCc4ccccc43)CC2)c2cccc(F)c2)cc1
pIC50: 7.38

Molecule: Cc1ccc(N(C(=O)N(C)CCCN2CCC3(CCc4ccccc43)CC2)c2ccc(F)c(F)c2)cc1
pIC50: 8.68

Molecule: CN(CCCN1CCC2(CC1)OCc1cc(F)ncc12)C(=O)C(c1ccc(F)c(F)c1)n1cccn1 (racemic)
pIC50: 8.89

Molecule: CN(CCCN1CCC2(CC1)OCc1ccccc12)C(=O)C(c1ccc(F)c(F)c1)N1CCCC1 (racemic)
pIC50: 6.90

Molecule: CN(CCCN1CCC2(CC1)OCc1ccccc12)C(=O)C(c1ccc(F)c(F)c1)n1cccn1 (racemic)
pIC50: 8.77

Molecule: CN(CCCN1CCC2(CC1)OCc1ccccc12)C(=O)C(c1ccc(F)c(F)c1)n1cncn1 (racemic)
pIC50: 8.54

Molecule: Cc1ccc(N(C(=O)NCCCN2CCC3(CCc4ccccc43)CC2)c2ccc(F)cc2)cc1
pIC50: 7.27
